Data credit: paper PMC4336329

biological target: human ether-à-go-go-related gene (hERG) potassium channel (human, UniProt Q12809); test: primary screen, population patch clamp on CHO cells stably expressing hERG; higher = less effect of the substance;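 note: peak tail current of the secondary pulse compared with the same well before compound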
Sequence (Q12809 whole entry, looked up): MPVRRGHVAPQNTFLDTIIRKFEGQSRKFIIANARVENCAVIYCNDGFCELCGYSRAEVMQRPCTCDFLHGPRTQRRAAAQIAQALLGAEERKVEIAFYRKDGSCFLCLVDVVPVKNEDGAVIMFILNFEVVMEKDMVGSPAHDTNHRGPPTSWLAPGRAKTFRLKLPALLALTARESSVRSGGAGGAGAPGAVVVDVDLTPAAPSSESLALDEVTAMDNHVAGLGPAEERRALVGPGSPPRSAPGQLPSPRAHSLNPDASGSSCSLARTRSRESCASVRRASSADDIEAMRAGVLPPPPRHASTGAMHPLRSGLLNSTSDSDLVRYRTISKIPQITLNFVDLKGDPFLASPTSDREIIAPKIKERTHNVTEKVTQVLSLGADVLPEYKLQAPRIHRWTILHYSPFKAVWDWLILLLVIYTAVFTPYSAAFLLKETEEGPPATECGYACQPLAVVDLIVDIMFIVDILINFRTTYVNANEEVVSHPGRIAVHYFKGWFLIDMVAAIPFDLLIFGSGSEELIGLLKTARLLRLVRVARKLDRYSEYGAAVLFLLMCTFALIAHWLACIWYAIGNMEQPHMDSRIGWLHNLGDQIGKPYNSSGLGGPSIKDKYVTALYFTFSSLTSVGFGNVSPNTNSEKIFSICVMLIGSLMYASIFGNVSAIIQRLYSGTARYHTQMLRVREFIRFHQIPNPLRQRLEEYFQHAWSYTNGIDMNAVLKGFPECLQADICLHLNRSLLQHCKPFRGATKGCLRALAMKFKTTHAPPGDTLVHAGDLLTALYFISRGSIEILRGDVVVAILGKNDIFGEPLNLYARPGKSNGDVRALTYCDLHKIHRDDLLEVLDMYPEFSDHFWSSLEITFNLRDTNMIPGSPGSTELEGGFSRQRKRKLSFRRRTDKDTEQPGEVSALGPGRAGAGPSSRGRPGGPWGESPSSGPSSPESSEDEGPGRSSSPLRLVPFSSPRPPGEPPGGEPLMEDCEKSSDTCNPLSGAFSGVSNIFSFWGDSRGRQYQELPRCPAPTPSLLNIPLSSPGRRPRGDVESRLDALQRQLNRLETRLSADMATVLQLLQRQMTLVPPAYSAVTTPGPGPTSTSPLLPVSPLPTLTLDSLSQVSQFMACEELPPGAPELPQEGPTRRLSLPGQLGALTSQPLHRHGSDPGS
Out of some 310,000 compounds screened, about 14,000 (4.5%) showed an effect of 50% or more. The effect is printed as a negative number. For the sample, strong results were picked, then their nearest neighbours and some compounds at random.
quantityName: hERG current change (%, negative = inhibition) at 10uM (%)
// note: answer is a bare numeric in %

compound	unitDescriptor	valueReported
CC(C)N1C(=O)C2ON(c3ccccc3)C(c3cccs3)C2C1=O (stereo not drawn)	%	-16.6
CC(C(=O)NCc1ccccn1)c1ccc([N+](=O)[O-])cc1 (stereo not drawn)	%	-49.5
Cc1cc(C)c2c(n1)SCC(=O)N2CC(=O)Nc1cc(F)ccc1F	%	-7.16
O=C(CCC(=O)N1CCCC1)Nc1ccc([N+](=O)[O-])cc1	%	-1.25
Cc1ccc(/C=N/NC(=O)c2cc3c(ccc4ccccc43)o2)cc1[N+](=O)[O-]	%	3.49
O=C(/C=C/Nc1ccc(F)c(Cl)c1)c1ccco1	%	-0.57

Q: Looking for the measured hERG current change (%, negative = inhibition) at 10uM of `CC(C)(C)C(=O)N1CCC(O)(CS(=O)(=O)c2ccc(Cl)c(Cl)c2)CC1` , can you help?
Ans: -5.3

Q: Requested read-out: hERG current change (%, negative = inhibition) at 10uM. Entry: `Cn1ncc2c(Nc3cccc(C(=O)O)c3)ncnc21`
Ans: 6.66
